# assayDetails: in vitro
# statedConditions: human, plasma
metricName: remaining at 2 h, 2 µM (%)
Report only the number, with the unit % understood.

Item under review: "CCC(CC)O[C@@H]1C=C(C(=O)O)C[C@H](NCc2ccc(Sc3ccccc3)cc2)[C@H]1NC(C)=O" . Reported remaining at 2 h, 2 µM?
91.6

----------
# assayDetails: in vitro
# statedConditions: human, liver microsomes
metricName: remaining at 1 h, 2 uL (%)
Report only the number, with the unit % understood.

Item under review: O=C(O)Cc1ccccc1Nc1c(Cl)cccc1Cl [DICLOFENAC] . Reported remaining at 1 h, 2 uL?
103

Moving on to the next compound: "CCC(CC)O[C@@H]1C=C(C(=O)O)C[C@H](NCc2ccc(Sc3ccccc3)cc2)[C@H]1NC(C)=O"
115

src = ChEMBL document CHEMBL4270670
